Below: a set of entries, each annotated with reported melting point.

Examples with their reported melting point follow.
CC(C)Nc1nc2cc(Br)sc2c(=O)[nH]1	240 to 242 °C
Cc1ccc(C#Cc2cc3nc(NC(C)C)[nH]c(=O)c3s2)cc1	277 to 279 °C
CN1CCN(c2ncc(-c3cc4nc(NC(C)(C)C)[nH]c(=O)c4s3)cn2)CC1	289 to 291 °C
CC(C)(C)Nc1nc2cc(Nc3ccc(F)cc3)sc2c(=O)[nH]1	195 to 197 °C
CC(C)(C)Nc1nc2cc(-c3cnc(N4CCOCC4)nc3)sc2c(=O)[nH]1	> 300 °C
CC(C)(C)Nc1nc2cc(-c3ccc(S(=O)(=O)N4CCOCC4)cc3)sc2c(=O)[nH]1	> 300 °C

[ask] Query melting point for CSc1ccc(-c2cc3nc(NC(C)(C)C)[nH]c(=O)c3s2)cc1
[reply] 272 to 274 °C

[ask] Read off the recorded melting point for CC(C)(C)Nc1nc2cc(C#CC3CC3)sc2c(=O)[nH]1
[reply] 158 to 160 °C
